Assignment: determine reported normalized growth for the given compounds.
# assay name: chemical genetic growth profiling, strain panel (AID 1159580);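 note: tested at 20 µM; growth read once vehicle control cultures reached saturation at 30 °C; 1 = growth at the plate median or of vehicle wells; lower values mean less growth of the strain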
# applied conditions: S. cerevisiae deletion strains, growth OD, locus YDR001C, strain nth1, stronger effect = lower value
Out of some 5,500 compounds screened, about 2,000 (36%) were called active. Inconclusive results (about 18%) are left out. This is one part of the list.
# respond with the number and nothing more

Dear colleague, I am looking for the recorded normalized growth of the following compound: CCn1cc(C(=O)O)c(=O)c2cc(F)c(N3CCNC(C)C3)c(F)c21 (stereo not given)
0.974

Here is the next compound: CC1(O)CC2C(CC1O)C2(C)C (stereo not given)
1.01

Here is the next compound: `O=C(Oc1cc(OC(=O)c2ccccc2)c2c(c1)O[C@H](c1ccc(OC(=O)c3ccccc3)c(OC(=O)c3ccccc3)c1)[C@@H](OC(=O)c1ccccc1)C2)c1ccccc1`
0.994

Here is the next compound: `Nc1nc(=S)c2[nH]cnc2[nH]1`
0.982

Here is the next compound: `C#CCN(C)Cc1ccccc1`
1.01

Here is the next compound: CN1C2CCC1CC(OC(c1ccccc1)c1ccccc1)C2 (stereo not given)
0.989

Here is the next compound: `CCn1cc(C(=O)O)c(=O)c2cc(F)c(N3CCNCC3)nc21`
0.978

Here is the next compound: CC[C@]1(O)CC2CN(CCc3c([nH]c4ccccc34)[C@@](C(=O)OC)(c3cc4c(cc3OC)N(C)[C@H]3[C@@](O)(C(=O)OC)[C@H](OC(C)=O)[C@]5(CC)C=CCN6CC[C@]43[C@@H]65)C2)C1 (stereo not given in full)
0.973

Here is the next compound: `CC(=O)Oc1cc(OC(C)=O)c2c(c1)O[C@H](c1ccc(OC(C)=O)c(OC(C)=O)c1)[C@@H](OC(C)=O)C2`
1

Here is the next compound: `CCN(CC)C(=O)N1CCN(C)CC1`
0.958

Here is the next compound: CCC(C)C(=O)O[C@@H]1C[C@@]2(C)[C@H](c3ccoc3)OC(=O)CC23OC2(C)O[C@]14[C@]1(C)[C@@H](CC(=O)OC)C5(C)CC1(O)[C@](O)(C5OC(=O)C1(C)OC1C)[C@@H](OC(C)=O)[C@]34O2 (stereo not given in full)
0.997

Here is the next compound: COc1c(N2CCNC(C)C2)c(F)cc2c(=O)c(C(=O)O)cn(C3CC3)c12 (stereo not given)
0.976

Here is the next compound: `Cc1ncc(CNC(=O)N(CCCl)N=O)c(N)n1`
1.01

Here is the next compound: `C=CCc1ccc(OC)cc1`
1

Here is the next compound: Cn1c(=O)c2c(ncn2CC(O)CO)n(C)c1=O (stereo not given)
0.97

Here is the next compound: `C[C@H]1COc2c(N3CCN(C)CC3)c(F)cc3c(=O)c(C(=O)O)cn1c23`
1.02

Here is the next compound: `O=C(O)CCCc1ccc(N(CCCl)CCCl)cc1`
0.973

Here is the next compound: C=CC[C@]1(O)CCC2C3CCC4=CC(=O)CCC4=C3C=C[C@@]21C (stereo not given in full)
0.995

Here is the next compound: `O=C(O[C@@H]1Cc2c(O)cc(O)cc2O[C@@H]1c1cc(O)c(O)c(O)c1)c1cc(O)c(O)c(O)c1`
1

Here is the next compound: `O=C(O)CCCc1ccccc1`
0.977

Here is the next compound: `COC(=O)/C=C/C(C)=C/C=C/C(C)=C/C=C/C=C(C)/C=C/C=C(C)/C=C/C(=O)O`
1.03

Here is the next compound: `CCCCCCCCC(=O)NCc1ccc(O)c(OC)c1`
0.988

Here is the next compound: CO/N=C1/CN(c2nc3c(cc2F)c(=O)c(C(=O)O)cn3C2CC2)CC1CN (stereo not given)
1.02

Here is the next compound: `C=CCc1ccc(O)c(OC)c1`
0.982

Here is the next compound: `CN1CC(=O)N=C1N`
1.01

Here is the next compound: c1ccc2c(c1)CCCC2C1=NCCN1 (stereo not given)
1.01

Here is the next compound: `O=C(O[C@@H]1Cc2c(O)cc(O)cc2O[C@@H]1c1ccc(O)c(O)c1)c1cc(O)c(O)c(O)c1`
1.02

Here is the next compound: `COc1ccc(-c2coc3cc(O)ccc3c2=O)c(O)c1O`
0.976

Here is the next compound: `O=C(c1ccc(OCCN2CCCCC2)cc1)c1c(-c2ccc(O)cc2)sc2cc(O)ccc12`
1.02

Here is the next compound: `N[C@@H](Cc1ccc(N(CCCl)CCCl)cc1)C(=O)O`
0.978
